// data source = ChEMBL document CHEMBL4190316

test: Cytotoxicity against human NCI-EC1 cells assessed as reduction in cell viability after 72 hrs by MTT assay; type: functional, cell-based
MEASURED_QUANTITY: IC50

compound="COC1OC(=O)C(Cl)=C1Nc1ccc(-c2ccccc2)cc1 (centres undefined)" value_measured="32.2 µM"
compound="CCOC1OC(=O)C(Br)=C1Nc1ccc(-c2ccccc2)cc1 (centres undefined)" value_measured="55 µM"
compound="CC(=O)OC1OC(=O)C(Br)=C1Nc1ccc(-c2ccc(N)cc2)cc1 (centres undefined)" value_measured="55.1 µM"
compound="COC1OC(=O)C(Br)=C1Nc1ccc(-c2ccccc2)cc1 (centres undefined)" value_measured="48 µM"
compound="COC1OC(=O)C(Cl)=C1Nc1ccc(-c2ccc(N)cc2)cc1 (centres undefined)" value_measured="> 100 µM"

Then there is this compound:
Tell us which IC50 value is on record for CCOC1OC(=O)C(Br)=C1Nc1ccc(-c2ccc(N)cc2)cc1 (centres undefined)
82.8 µM

====

assay: Octanol-water partition coefficient, log P of the compound at 10 mM after 24 hrs by UV-vis spectroscopic method; assay type: physicochemical
# logP at 24 h, 10000 µM per entry
Simply state the number, no unit and no words.

Would you please look over these solved cases?
compound="CC(=O)OC1OC(=O)C(Br)=C1Nc1ccc(-c2ccc(N)cc2)cc1 (centres undefined)" measured_quantity="logP at 24 h, 10000 µM" value_measured=1.76
compound="CC(=O)OC1OC(=O)C(Br)=C1Nc1ccc(-c2ccccc2)cc1 (centres undefined)" measured_quantity="logP at 24 h, 10000 µM" value_measured=1.31
compound="CCOC1OC(=O)C(Br)=C1Nc1ccc(-c2ccccc2)cc1 (centres undefined)" measured_quantity="logP at 24 h, 10000 µM" value_measured=1.74

Then there is this compound:
Tell us which logP at 24 h, 10000 µM value is on record for COC1OC(=O)C(Cl)=C1Nc1ccc(-c2ccccc2)cc1 (centres undefined)
1.5

====

system: C6; test: Cytotoxicity against rat C6 cells assessed as reduction in cell viability after 72 hrs by MTT assay; assay type: functional, cell-based; settings: C6, 72 h
Label key: 1 (yes) means IC50 under 60 µM; 0 (no) means IC50 of 60 µM or more.

compound="COC1OC(=O)C(Br)=C1Nc1ccc(-c2ccc(N)cc2)cc1 (stereo unspecified)" assigned_label="0 (no)"
compound="CCOC1OC(=O)C(Br)=C1Nc1ccc(-c2ccc(N)cc2)cc1 (stereo unspecified)" assigned_label="1 (yes)"
compound="CC(=O)OC1OC(=O)C(Br)=C1Nc1ccc(-c2ccc(N)cc2)cc1 (stereo unspecified)" assigned_label="1 (yes)"
compound="COC1OC(=O)C(Cl)=C1Nc1ccc(-c2ccc(N)cc2)cc1 (stereo unspecified)" assigned_label="0 (no)"

Is the reported IC50 for COC1OC(=O)C(Cl)=C1Nc1ccc(-c2ccccc2)cc1 (stereo unspecified) strictly below 60 µM?
1 (yes)

Is the reported IC50 for COC1OC(=O)C(Br)=C1Nc1ccc(-c2ccccc2)cc1 (stereo unspecified) strictly below 60 µM?
1 (yes)

====

system: C6; assay: Cytotoxicity against rat C6 cells assessed as reduction in cell viability after 72 hrs by MTT assay; format: functional, cell-based; details: C6, 72 h
# IC50 per entry
Your answer should be a plain number; it is taken to be in µM.

Tell us which IC50 value is on record for CCOC1OC(=O)C(Cl)=C1Nc1ccc(-c2ccccc2)cc1 (centres undefined)
47.9

Tell us which IC50 value is on record for CCOC1OC(=O)C(Cl)=C1Nc1ccc(-c2ccc(N)cc2)cc1 (centres undefined)
49.6

Tell us which IC50 value is on record for CC(=O)OC1OC(=O)C(Br)=C1Nc1ccc(-c2ccccc2)cc1 (centres undefined)
44.4

Tell us which IC50 value is on record for CCOC1OC(=O)C(Br)=C1Nc1ccc(-c2ccccc2)cc1 (centres undefined)
27.4
